Catalogue of pIC50 values
biological target: O. volvulus iPGM (Onchocerca volvulus, UniProt I6LDA6); assay: biochemical; conditions: pIC50, apparent O. volvulus iPGM
Sequence (I6LDA6 whole entry, looked up): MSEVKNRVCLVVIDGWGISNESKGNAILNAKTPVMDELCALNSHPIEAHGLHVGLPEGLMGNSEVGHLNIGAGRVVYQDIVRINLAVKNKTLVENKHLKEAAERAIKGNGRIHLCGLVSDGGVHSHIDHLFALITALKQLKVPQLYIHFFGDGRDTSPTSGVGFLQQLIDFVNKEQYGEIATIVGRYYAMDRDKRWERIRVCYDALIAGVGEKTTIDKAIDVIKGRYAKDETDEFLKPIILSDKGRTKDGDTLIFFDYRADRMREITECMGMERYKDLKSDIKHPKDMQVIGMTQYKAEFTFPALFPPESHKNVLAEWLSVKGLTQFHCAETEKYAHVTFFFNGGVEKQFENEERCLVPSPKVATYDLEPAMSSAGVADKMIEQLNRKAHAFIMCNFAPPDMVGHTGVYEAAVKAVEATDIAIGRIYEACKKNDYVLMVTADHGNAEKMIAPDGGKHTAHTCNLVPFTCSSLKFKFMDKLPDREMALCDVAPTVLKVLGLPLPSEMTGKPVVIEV
pIC50: −log10 of the molar value. Positions of bridges follow the written chain, without caps; N, C: chain ends. Non-standard residues stand in square brackets, D forms with d. Residues, ends and D or L forms follow the SMILES beside them.

| compound | pIC50 |
| --- | --- |
| CC(C)[C@@H]1NC(=O)[C@H](C)NC(=O)[C@@H](Cc2ccc(O)cc2)NC(=O)CSC[C@@H](C(=O)N[C@@H](CCCNC(=N)N)C(=O)N[C@H](C(=O)N[C@@H](CS)C(=O)NCC(N)=O)[C@@H](C)O)NC(=O)[C@H](CC(N)=O)NC(=O)[C@@H]2CCCN2C(=O)[C@H](Cc2c[nH]c3ccccc23)NC1=O [Bm-7] ({CH2CO}-[dY]AVWPNCRTCG-NH2; thioether N-7) | 5.37 |
| C[C@@H](O)[C@H](NC(=O)[C@H](CO)NC(=O)[C@@H]1CSCC(=O)N[C@H](Cc2ccc(O)cc2)C(=O)N2CCC[C@H]2C(=O)N[C@@H](CCC(=O)O)C(=O)N[C@@H](Cc2c[nH]c3ccccc23)C(=O)N2CCC[C@H]2C(=O)N[C@@H](CC(N)=O)C(=O)N1)C(=O)N[C@@H](CS)C(=O)NCC(N)=O [Bm-6] ({CH2CO}-[dY]PEWPNCSTCG-NH2; thioether N-7) | 6.08 |
| CC(C)C[C@@H]1NC(=O)[C@@H](Cc2ccc(O)cc2)NC(=O)CSC[C@@H](C(=O)N[C@@H](CO)C(=O)N[C@H](C(=O)N[C@@H](CS)C(=O)NCC(N)=O)[C@@H](C)O)NC(=O)[C@H](CC(N)=O)NC(=O)[C@@H]2CCCN2C(=O)[C@H](Cc2c[nH]c3ccccc23)NC(=O)[C@H](CC(=O)O)NC1=O [Bm-5] ({CH2CO}-[dY]LDWPNCSTCG-NH2; thioether N-7) | 5.99 |
| CC[C@H](C)[C@@H]1NC(=O)[C@H](CCC(=O)O)NC(=O)[C@@H]2CCCN2C(=O)[C@H](C)NC(=O)[C@H](CC(N)=O)NC(=O)[C@@H]2CCCN2C(=O)[C@H](Cc2c[nH]c3ccccc23)NC(=O)[C@H](CO)NC(=O)[C@@H](Cc2ccc(O)cc2)NC(=O)CSC[C@@H](C(=O)N[C@@H](CS)C(=O)NCC(N)=O)NC(=O)[C@H](CCCCN)NC(=O)[C@H](Cc2c[nH]c3ccccc23)NC1=O [Bm-1] ({CH2CO}-[dY]SWPNAPEIWKCCG-NH2; thioether N-12) | 5.88 |

----------
molecular target: E. coli iPGM (Escherichia coli, UniProt P37689); test: biochemical; details: pIC50, apparent E. coli iPGM
Sequence (P37689 whole entry, looked up): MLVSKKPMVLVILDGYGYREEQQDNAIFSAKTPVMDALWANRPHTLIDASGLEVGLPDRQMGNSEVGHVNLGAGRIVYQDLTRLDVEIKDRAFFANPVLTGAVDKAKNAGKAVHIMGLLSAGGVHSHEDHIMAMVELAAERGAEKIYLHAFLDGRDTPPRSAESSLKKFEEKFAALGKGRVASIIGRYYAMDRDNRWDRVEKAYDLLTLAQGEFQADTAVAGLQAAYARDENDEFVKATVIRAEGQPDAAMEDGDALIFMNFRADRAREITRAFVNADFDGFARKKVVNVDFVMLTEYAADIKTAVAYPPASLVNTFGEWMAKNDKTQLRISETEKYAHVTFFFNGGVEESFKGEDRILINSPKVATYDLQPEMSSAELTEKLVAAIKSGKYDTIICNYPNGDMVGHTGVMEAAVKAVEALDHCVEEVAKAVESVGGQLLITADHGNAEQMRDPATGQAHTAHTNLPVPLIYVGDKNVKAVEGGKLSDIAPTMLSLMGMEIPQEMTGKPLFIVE
pIC50: −log10 of the molar value. Positions of bridges follow the written chain, without caps; N, C: chain ends. Non-standard residues stand in square brackets, D forms with d. Residues, ends and D or L forms follow the SMILES beside them.

| molecule | pIC50 |
| --- | --- |
| CC(C)C[C@H](NC(=O)[C@H](Cc1ccc(O)cc1)NC(=O)[C@@H]1CSCC(=O)N[C@H](Cc2ccc(O)cc2)C(=O)N[C@@H](CC(=O)O)C(=O)N[C@@H](Cc2ccc(O)cc2)C(=O)N2CCC[C@H]2C(=O)NCC(=O)N[C@@H](CC(=O)O)C(=O)N[C@@H](Cc2c[nH]cn2)C(=O)N1)C(=O)N[C@@H](Cc1ccc(O)cc1)C(=O)NCC(=O)N[C@H](C(=O)N[C@@H](CS)C(=O)NCC(N)=O)[C@@H](C)O | 8.38 |
| CC[C@H](C)[C@@H]1NC(=O)[C@H](CCCNC(=N)N)NC(=O)[C@H](Cc2ccccc2)NC(=O)[C@@H]2CCCN2C(=O)[C@H](CC(N)=O)NC(=O)[C@H](C)NC(=O)[C@H](CC(C)C)NC(=O)[C@H]([C@@H](C)O)NC(=O)[C@H]([C@@H](C)CC)NC(=O)[C@H](Cc2ccc(O)cc2)NC(=O)CSC[C@@H](C(=O)NCC(N)=O)NC(=O)[C@H](Cc2c[nH]cn2)NC(=O)[C@H](CC(C)C)NC1=O [Ce-3] ({CH2CO}-YITLANPFRILHCG-NH2; thioether N-13) | 6.27 |
| CC(C)C[C@@H]1NC(=O)[C@@H](Cc2ccc(O)cc2)NC(=O)CSC[C@@H](C(=O)N[C@@H](CC(N)=O)C(=O)N[C@H](C(=O)N[C@@H](CS)C(=O)NCC(N)=O)[C@@H](C)O)NC(=O)[C@H](CC(N)=O)NC(=O)[C@@H]2CCCN2C(=O)[C@H](Cc2c[nH]c3ccccc23)NC(=O)[C@H](CCC(=O)O)NC1=O [Bm-4] ({CH2CO}-[dY]LEWPNCNTCG-NH2; thioether N-7) | 5.56 |
| CC(C)[C@@H]1NC(=O)[C@H](C)NC(=O)[C@@H](Cc2ccc(O)cc2)NC(=O)CSC[C@@H](C(=O)N[C@@H](CCCNC(=N)N)C(=O)N[C@H](C(=O)N[C@@H](CS)C(=O)NCC(N)=O)[C@@H](C)O)NC(=O)[C@H](CC(N)=O)NC(=O)[C@@H]2CCCN2C(=O)[C@H](Cc2c[nH]c3ccccc23)NC1=O [Bm-7] ({CH2CO}-[dY]AVWPNCRTCG-NH2; thioether N-7) | 5.12 |
